All figures here come from ChEMBL document CHEMBL1142417.

- Tested on: HL-60
- Assay comment: Antitumor against human HL60 cells after 72 hrs by MTT assay
- Assay type: functional, cell-based
- Experimental context: HL-60, 72 h
Recorded metric: pIC50
Here pIC50 is given on a logarithmic scale as minus log10 of the concentration in mol/L.

Per the records, this compound ( `COC1=C(OC)C(=O)c2ccccc2C1=O` ) has pIC50 equal to 5.05

###

- Tested on: HL-60
- Assay comment: Antitumor against human HL60 cells after 72 hrs by MTT assay
- Type: functional, cell-based
- Experimental context: HL-60, 72 h
I'd appreciate it if you marked entries condition met when IC50 is lower than 2000 nM and condition not met when it is not.

// below: answered compounds
[
  {
    "Compound": "O=C1C2=C(OCCOCCO2)C(=O)c2ccccc21",
    "Class name": "condition not met"
  },
  {
    "Compound": "O=C1C2=C(OCCO2)C(=O)c2ccccc21",
    "Class name": "condition not met"
  },
  {
    "Compound": "O=C1C2=C(OCCOCCOCCO2)C(=O)c2ccccc21",
    "Class name": "condition not met"
  },
  {
    "Compound": "COCCOC1=C(Cl)C(=O)c2ccccc2C1=O",
    "Class name": "condition met"
  },
  {
    "Compound": "O=C1C(Cl)=C(OCCOCCOCCOCCOC2=C(Cl)C(=O)c3ccccc3C2=O)C(=O)c2ccccc21",
    "Class name": "condition not met"
  },
  {
    "Compound": "O=C1C(Cl)=C(OCCOCCOC2=C(Cl)C(=O)c3ccccc3C2=O)C(=O)c2ccccc21",
    "Class name": "condition met"
  },
  {
    "Compound": "COC1=C(Cl)C(=O)c2ccccc2C1=O",
    "Class name": "condition met"
  },
  {
    "Compound": "O=C1C(Cl)=C(OCCOCCOCCOC2=C(Cl)C(=O)c3ccccc3C2=O)C(=O)c2ccccc21",
    "Class name": "condition met"
  }
]

# next compound below
INPUT: Is the reported IC50 for COc1cc([C@@H]2c3cc4c(cc3[C@@H](O[C@@H]3O[C@@H]5CO[C@@H](C)O[C@H]5[C@H](O)[C@H]3O)[C@H]3COC(=O)[C@H]23)OCO4)cc(OC)c1O [ETOPOSIDE] strictly below 2000 nM?
OUTPUT: condition met
